We begin with a simple list: items and their reported melting point.

# compound, melting point
measured = [
    ("CCCCN(CCCCCCCCSc1nc(-c2ccccc2)c(-c2ccccc2)[nH]1)C(=O)Nc1ccc(F)cc1F", "114 to 115 °C"),
    ("O=C(OCc1ccc(OCCc2ccc(Cl)cc2)cc1)c1cccnc1", "77 to 78 °C"),
    ("CON(C)C(=O)Nc1ccc(OCCc2ccc(C(C)(C)C)cc2)cc1", "14 to 15 °C"),
    ("CN1CC(CCCl)Oc2cc3ccccc3cc2C1=S (stereo unspecified)", "166 to 168 °C"),
    ("O=C(NCc1c(F)cccc1F)c1[nH]c2ccc(Cl)cc2c1S(=O)(=O)c1ccccc1", "274 to 280 °C"),
    ("CC(C)c1cc(O)cc2c1C(=O)N(CSc1ccccc1)S2(=O)=O", "127 to 130 °C"),
    ("Cc1[nH]cnc1CCCCNC(=O)c1ccccc1", "124 to 128 °C"),
    ("CC(=O)OC(OC(C)=O)c1cc(Br)c(C(OC(C)=O)OC(C)=O)cc1Br", "200 to 210 °C"),
    ("CC(=O)c1ccccc1NC(c1c(Cl)cccc1Cl)C1CC1 (stereo unspecified)", "116 °C"),
    ("OCC1NCc2ccsc2-n2cccc21 (stereo unspecified)", "166 °C"),
    ("O=c1nc(-c2ccc3c(n2)CCCC3)sc2ccccc12", "232 to 233 °C"),
    ("N[C@@H](CSc1ccccc1[N+](=O)[O-])C(=O)O", "168 to 171 °C"),
    ("CS(=O)(=O)c1ccc(-c2nnc(Cl)cc2-c2ccc(Cl)cc2)cc1", "190 °C"),
    ("NC1=CC2=C(CC1)CCc1c2[nH]c(=O)c(=O)n1Cc1ccccc1", "290 °C"),
    ("Cc1nc(CO)sc1-c1ccnc(Nc2ccc(N3CCCCC3)cc2)n1", "194 to 195 °C"),
    ("Cc1nnc2n1-c1ccc(N)cc1C(c1ccccc1Cl)=CC2", "271 to 273 °C"),
    ("Cc1ccc(-n2ncc(C(=O)Nc3ccc(N4CCN(C5CCOCC5)CC4)c(C#N)c3)c2C)cc1", "258 °C"),
    ("CC1(C)CCOc2c(C(O)C#Cc3ccc(C(=O)O)c(O)c3)cccc21 (stereo unspecified)", "225 to 227 °C"),
    ("NCc1cn2ccccc2n1", "91 to 93 °C"),
    ("COc1cc(C)ccc1OCc1ccccc1", "38 to 39 °C"),
    ("Cc1ccc(N2CCN(CCC3CN(C)C(=O)O3)CC2)cc1C (stereo unspecified)", "96 to 97 °C"),
]
